- Tested on: Proteus vulgaris HX 19
- MEASUREMENT DESCRIPTION: Minimum Inhibitory Concentration, Proteus vulgaris HX 19
- Format: cell-based
- PROTOCOL CONDITIONS: Proteus vulgaris HX 19
Quick reference for Minimum Inhibitory Concentration among some compounds
READOUT TYPE: Minimum Inhibitory Concentration (µg/mL)

INSERT INTO measurements (compound, endpoint_result) VALUES
  ('CC(=O)OCC1=C(C(=O)[O-])N2C(=O)C(NC(=O)C(NC(=O)c3cnc4cccnc4c3O)c3ccc(O)c(F)c3)C2SC1.[Na+] (centres unmarked)', 0.39),
  ('CSc1ncc2c(O)c(C(=O)NC(C(=O)NC3C(=O)N4C(C(=O)[O-])=C(COC(C)=O)CSC34)c3ccc(O)cc3)cnc2n1.[Na+] (centres unmarked)', 1.56),
  ('CC(=O)OCC1=C(C(=O)[O-])N2C(=O)C(NC(=O)C(NC(=O)c3cnc4ncncc4c3O)c3ccc(O)cc3)C2SC1.[Na+] (centres unmarked)', 3.13),
  ('COc1cc(C(NC(=O)c2cnc3cccnc3c2O)C(=O)NC2C(=O)N3C(C(=O)[O-])=C(COC(C)=O)CSC23)ccc1O.[Na+] (centres unmarked)', 0.78),
  ('CC(=O)OCC1=C(C(=O)[O-])N2C(=O)C(NC(=O)C(NC(=O)c3cnc4cccnc4c3O)c3ccc(O)c(O)c3)C2SC1.[Na+] (centres unmarked)', 0.78),
  ('CC(=O)OCC1=C(C(=O)[O-])N2C(=O)C(NC(=O)C(NC(=O)c3cnc4cccnc4c3O)c3cc(Cl)c(O)c(Cl)c3)C2SC1.[Na+] (centres unmarked)', 1.56),
  ('CSc1cnc2c(O)c(C(=O)NC(C(=O)NC3C(=O)N4C(C(=O)[O-])=C(COC(C)=O)CSC34)c3cccc(O)c3)cnc2n1.[Na+] (centres unmarked)', 1.56),
  ('CC(=O)OCC1=C(C(=O)[O-])N2C(=O)C(NC(=O)C(NC(=O)c3cnc4nc(C)cnc4c3O)c3ccc(O)cc3)C2SC1.[Na+] (centres unmarked)', 0.78),
  ('CC(=O)OCC1=C(C(=O)[O-])N2C(=O)C(NC(=O)C(NC(=O)c3cnc4cccnc4c3O)c3cccc(O)c3)C2SC1.[Na+] (centres unmarked)', 0.78),
  ('Cn1nnnc1SCC1=C(C(=O)[O-])N2C(=O)C(NC(=O)C(NC(=O)c3cnc4cccnc4c3O)c3cccc(N)c3)C2SC1.[Na+] (centres unmarked)', 0.1),
  ('CC(=O)OCC1=C(C(=O)[O-])N2C(=O)C(NC(=O)C(NC(=O)c3ccnnc3O)c3ccc(NC(N)=O)cc3)C2SC1.[Na+] (centres unmarked)', 0.2),
  ('CC(=O)OCC1=C(C(=O)[O-])N2C(=O)C(NC(=O)C(NC(=O)c3cnc4cncnc4c3O)c3ccc(O)cc3)C2SC1.[Na+] (centres unmarked)', 0.78),
  ('CN(C)c1ccc2ncc(C(=O)NC(C(=O)NC3C(=O)N4C(C(=O)[O-])=C(CSc5nnnn5C)CSC34)c3ccc(NC(N)=O)cc3)c(O)c2n1.[Na+] (centres unmarked)', 0.2),
  ('Nc1cccc(C(NC(=O)c2cnccc2O)C(=O)NC2C(=O)N3C(C(=O)O)=C(CSc4nnc(CO)s4)CSC23)c1 (centres unmarked)', 0.2);
